The origin of these recorded values is paper PMC8617944.

assay: Distribution of C1 in tissues; type: in vivo, Wistar rats; details: male, Wistar, rat, liver, po, 75 mg/kg, Liver, p.o. 75 mg/kg, individual rats; read-out: Concentration (µg/mL) at 10 minutes, Rat 1-3
value-type: concentration at 10 min

[Q] Which value of concentration at 10 min has been reported for O=C(/C=C(/Br)C(=O)O)Nc1ccc(O)c(C(=O)O)c1 [Compound C1] in the records?
[A] 4.4 µg/mL

----------
Assay: Pharmacokinetic profiles after p.o., i.p. and i.v. administration
Format: in vivo, Wistar rats
Conditions: Wistar, rat, plasma, ip, 75 mg/kg, i.p. 75 mg/kg, 5 min, n = 6
Protocol: On the same day as C1 administration, the rats (three groups, n = 6) were previously cannulated for compound administration by the p.o., i.p., and i.v. routes. A 24 G catheter was placed in the right lateral tail vein for blood collection. A first group of rats received a single dose of 50 mg/kg applied p.o. with a 20 G gavage needle. A dose of 75 mg/kg of C1 was injected i.p. into the rats in the second group. […]
value-type: concentration at 5 min (ng/mL)
Give the value, in units of ng/mL, as a plain number.

[Q] Value lookup for concentration at 5 min; key = O=C(/C=C(/Br)C(=O)O)Nc1ccc(O)c(C(=O)O)c1
[A] 15900

----------
assay: Distribution of C1 in tissues; assay type: in vivo, Wistar rats; details: male, Wistar, rat, small intestine, po, 75 mg/kg, Small intestine, 30 min, p.o. 75 mg/kg, n = 3; read-out: Average Concentration
value-type: concentration at 30 min
Please format your answer as a value with the unit trailing.

[Q] If you can, please state the reported concentration at 30 min value of O=C(/C=C(/Br)C(=O)O)Nc1ccc(O)c(C(=O)O)c1 .
[A] 15700 ng/mL

----------
experiment: Pharmacokinetic profiles after p.o., i.p. and i.v. administration; type: in vivo, Wistar rats; conditions: Wistar, rat, plasma, two-compartment model, Kinetica 5.0; read-out: elimination half-life α (t1/2α)
value-type: half-life (min)
The response must be a number in min with no trailing unit.

[Q] What value of half-life has been reported for the following compound? O=C(/C=C(/Br)C(=O)O)Nc1ccc(O)c(C(=O)O)c1
[A] 16

----------
test: Pharmacokinetic profiles after p.o., i.p. and i.v. administration; format: in vivo, Wistar rats; details: Wistar, rat, plasma, iv, 50 mg/kg, plasma, i.v. 50 mg/kg, 20 min, n = 6; read-out: Average Concentration
value-type: concentration at 20 min (ng/mL)
Provide only the numeric value, understood in ng/mL.

[Q] // concentration at 20 min lookup, key: O=C(/C=C(/Br)C(=O)O)Nc1ccc(O)c(C(=O)O)c1 [Compound C1]
[A] 6000

----------
test: Distribution of C1 in tissues; format: in vivo, Wistar rats; details: male, Wistar, rat, spleen, po, 75 mg/kg, Spleen, p.o. 75 mg/kg, individual rats; read-out: Concentration (µg/mL) at 30 minutes, Rat 1-3
value-type: concentration at 30 min (µg/mL)
Report as a plain number; the unit µg/mL is understood.

[Q] I am curious: what concentration at 30 min value has been reported for O=C(/C=C(/Br)C(=O)O)Nc1ccc(O)c(C(=O)O)c1 ?
[A] 21

----------
experiment: Distribution of C1 in tissues; type: in vivo, Wistar rats; settings: male, Wistar, rat, muscle, po, 75 mg/kg, Muscle, p.o. 75 mg/kg, individual rats; read-out: Concentration (µg/mL) at 30 minutes, Rat 1-3
value-type: concentration at 30 min (µg/mL)
Number only, in µg/mL; omit the unit.

[Q] What value of concentration at 30 min has been recorded for this entry: O=C(/C=C(/Br)C(=O)O)Nc1ccc(O)c(C(=O)O)c1 [Compound C1]
[A] 3.4

----------
experiment: Pharmacokinetic profiles after p.o., i.p. and i.v. administration; type: in vivo, Wistar rats; conditions: Wistar, rat, plasma, po; p.o. 50 mg/kg, rats; read-out: MRT, mean residence time
value-type: MRT (h)
Give the number; h is assumed, so skip it.

[Q] Given the compound O=C(/C=C(/Br)C(=O)O)Nc1ccc(O)c(C(=O)O)c1 , what is its reported MRT?
[A] 1.7

----------
experiment: Distribution of C1 in tissues; format: in vivo, Wistar rats; details: male, Wistar, rat, brain, po, 75 mg/kg, Brain, 3 h, p.o. 75 mg/kg, n = 3; read-out: Average Concentration
value-type: concentration at 3 h (ng/mL)
Output spec: scalar in ng/mL, unitless text.

[Q] Requested read-out: concentration at 3 h. Entry: O=C(/C=C(/Br)C(=O)O)Nc1ccc(O)c(C(=O)O)c1
[A] 2800

----------
test: Distribution of C1 in tissues; assay type: in vivo, Wistar rats; settings: male, Wistar, rat, liver, po, 75 mg/kg, Liver, 6 h, p.o. 75 mg/kg, n = 3; read-out: Average Concentration
value-type: concentration at 6 h (ng/mL)
Note: unit ng/mL is implicit; provide only the numeric part.

[Q] Look at this molecule and give its reported concentration at 6 h. O=C(/C=C(/Br)C(=O)O)Nc1ccc(O)c(C(=O)O)c1 [Compound C1]
[A] 4200

----------
Test: Distribution of C1 in tissues
Assay type: in vivo, Wistar rats
Conditions: male, Wistar, rat, heart, po, 75 mg/kg, Hearth, 90 min, p.o. 75 mg/kg, n = 3; read-out: Average Concentration
Procedure: Fifteen male Wistar rats were distributed in five groups (n = 3) and rats were orally administered C1 at a single dose of 75 mg/kg. Subsequently, a group of animals was sacrificed (n = 3) at 10, 30, 90, 180, and 360 min. […] All tissues and organs were weighed on an analytical balance and immediately processed. Each tissue sample was homogenized with saline solution in a 1:3 (wt/v) ratio. The preparation process for analysis was the same as described above for plasma samples [57] (File S8).
value-type: concentration at 90 min
The reply must contain the numeric value and, after it, the unit.

[Q] Looking for the measured concentration at 90 min of O=C(/C=C(/Br)C(=O)O)Nc1ccc(O)c(C(=O)O)c1 [Compound C1] , can you help?
[A] 3200 ng/mL

----------
experiment: Distribution of C1 in tissues; format: in vivo, Wistar rats; details: male, Wistar, rat, kidney, po, 75 mg/kg, Kidney, p.o. 75 mg/kg, individual rats; read-out: Concentration (µg/mL) at 30 minutes, Rat 1-3
value-type: concentration at 30 min (µg/mL)
Numbers only; they are read as µg/mL.

[Q] Would you mind telling me what concentration at 30 min value was observed for O=C(/C=C(/Br)C(=O)O)Nc1ccc(O)c(C(=O)O)c1 ?
[A] 6.1

----------
assay: Pharmacokinetic profiles after p.o., i.p. and i.v. administration; format: in vivo, Wistar rats; details: Wistar, rat, plasma, po, 50 mg/kg, plasma, i.g. (p.o.) 50 mg/kg, 720 min, n = 6; read-out: Average Concentration
value-type: concentration at 720 min
Your reply should be a number followed by the unit it is expressed in.

[Q] What measured concentration at 720 min goes with O=C(/C=C(/Br)C(=O)O)Nc1ccc(O)c(C(=O)O)c1 ?
[A] 0 ng/mL

----------
assay: Distribution of C1 in tissues; type: in vivo, Wistar rats; settings: male, Wistar, rat, stomach, po, 75 mg/kg, Stomach, 30 min, p.o. 75 mg/kg, n = 3; read-out: Average Concentration
value-type: concentration at 30 min (ng/mL)
The reply should contain only the number, in ng/mL.

[Q] Would you kindly share the measured concentration at 30 min for O=C(/C=C(/Br)C(=O)O)Nc1ccc(O)c(C(=O)O)c1 ?
[A] 10200

----------
test: Pharmacokinetic profiles after p.o., i.p. and i.v. administration; type: in vivo, Wistar rats; settings: Wistar, rat, plasma, iv, 50 mg/kg, i.v. 50 mg/kg, 180 min, n = 6
value-type: concentration at 180 min

[Q] Given the compound O=C(/C=C(/Br)C(=O)O)Nc1ccc(O)c(C(=O)O)c1 [Compound C1] , what is its reported concentration at 180 min?
[A] 1500 ng/mL

----------
test: Distribution of C1 in tissues; assay type: in vivo, Wistar rats; settings: male, Wistar, rat, brain, po, 75 mg/kg, Brain, p.o. 75 mg/kg, individual rats; read-out: Concentration (µg/mL) at 90 minutes, Rat 1-3
value-type: concentration at 90 min (µg/mL)
// units = µg/mL; emit number, no label

[Q] Can you share its concentration at 90 min? I mean this compound: O=C(/C=C(/Br)C(=O)O)Nc1ccc(O)c(C(=O)O)c1
[A] 3.1

----------
assay: Pharmacokinetic profiles after p.o., i.p. and i.v. administration; assay type: in vivo, Wistar rats; conditions: Wistar, rat, plasma, ip, 75 mg/kg, i.p. 75 mg/kg, 240 min, n = 6
value-type: concentration at 240 min (ng/mL)
The answer is to be given in ng/mL; state only the numeric part.

[Q] I would be grateful if you could share the reported concentration at 240 min for O=C(/C=C(/Br)C(=O)O)Nc1ccc(O)c(C(=O)O)c1 [Compound C1] .
[A] 2900
